- System: UACC-257 melanoma
- protocol text: NCI tumour cell line growth inhibition, 48 h
property measured: TGI

Give me TGI for each of these compounds, listed below.
1. CN1c2ccc(Cl)cc2C(=O)NC1c1ccc([N+](=O)[O-])s1 (stereo not given)
2. O=C1CC(=Nc2ccc(Cl)cc2)C(c2ccccc2)N1c1ccccc1 (stereo not given)

1: 29.1 µM; 2: > 100 µM

Could you report TGI for every entry in the following list?
1. C[C@@]12CC=C3c4nc(Nc5cccc(O)c5)sc4CC[C@]3(C)[C@H]1CC[C@]1(C)C(=O)CC[C@@H]21
2. CCOC(=O)CNc1c(OCc2ccccc2)c(=O)c1=O
3. CN(C)C(=O)c1cc2cnc(Nc3ccc(-c4csc5c(=S)cc(N6CCOCC6)oc45)cc3)nc2n1C1CCCC1

["> 100 µM", "> 100 µM", "> 14.7 µM"]
